test system: Aorta; assay: Vasorelaxant activity in Sprague-Dawley rat aortic rings assessed as reduction in phenylephrine-induced contractions by organ bath assay; assay type: functional, tissue-based
Listed next: entries and their corresponding EC50.
recorded.metric: EC50 (nM)

compound="CCCC(Cc1ccccc1)NCCN1CCOCC1 (centres undefined)" unit_abbrev=nM readout_value=2740
compound="CCCC(Cc1ccc2ccccc2c1)NCCc1ccccc1 (centres undefined)" unit_abbrev=nM readout_value=1600
compound="COc1ccc(CCC(Cc2ccc(OC)c(OC)c2)NCCc2ccc(OC)c(OC)c2)cc1 (centres undefined)" unit_abbrev=nM readout_value=2990
compound="CCCC(Cc1ccccc1)NCCN1CCCCC1 (centres undefined)" unit_abbrev=nM readout_value=130
compound="CCCC(Cc1ccccc1)NCCc1ccc([N+](=O)[O-])cc1 (centres undefined)" unit_abbrev=nM readout_value=1730
compound="CCCC(Cc1ccccc1)NCCc1ccccc1 (centres undefined)" unit_abbrev=nM readout_value=3060
compound="CCCC(Cc1ccccc1)NCCN1CCNCC1 (centres undefined)" unit_abbrev=nM readout_value=1040
compound="CCCC(Cc1ccccc1)NCCc1c[nH]cn1 (centres undefined)" unit_abbrev=nM readout_value=1370
compound="CC(=O)N(CCc1ccccc1)C(CCc1ccccc1)Cc1ccccc1 (centres undefined)" unit_abbrev=nM readout_value=20300
compound="CCCC(Cc1ccccc1)NCCc1ccc(F)cc1 (centres undefined)" unit_abbrev=nM readout_value=3830
compound="CCC(CCc1ccccc1)NCCc1ccccc1 (centres undefined)" unit_abbrev=nM readout_value=1240
compound="CCCC(Cc1cccs1)NCCc1ccccc1 (centres undefined)" unit_abbrev=nM readout_value=410
compound="CCCC(Cc1ccccc1)NCCCCc1ccccc1 (centres undefined)" unit_abbrev=nM readout_value=2740
compound="CCCC(Cc1ccccc1)NCCc1c[nH]c2ccccc12 (centres undefined)" unit_abbrev=nM readout_value=440
compound="CCCC(Cc1ccccc1)NCCc1cccs1 (centres undefined)" unit_abbrev=nM readout_value=3500
compound="CCCC(Cc1ccccc1)NC1CC2CCC1C2 (centres undefined)" unit_abbrev=nM readout_value=480
compound="CCCC(Cc1ccc(Cl)cc1)NCCc1ccccc1 (centres undefined)" unit_abbrev=nM readout_value=1950
compound="CCCC(Cc1ccccc1)NCCc1ccc(OC)cc1 (centres undefined)" unit_abbrev=nM readout_value=1280
compound=c1ccc(CCNC2Cc3ccccc3C2)cc1 unit_abbrev=nM readout_value=200
compound="CN(CCc1ccccc1)C(CCc1ccccc1)Cc1ccccc1 (centres undefined)" unit_abbrev=nM readout_value=40
compound="CCCC(Cc1ccc(C)cc1)NCCc1ccc(F)cc1 (centres undefined)" unit_abbrev=nM readout_value=1230
compound="CCCC(CC1CC1)NCCc1ccccc1 (centres undefined)" unit_abbrev=nM readout_value=1510
compound="c1ccc2c(c1)CCC(NC1Cc3ccccc3C1)C2 (centres undefined)" unit_abbrev=nM readout_value=1320
compound="CCCC(Cc1ccccc1)NCCc1ccccn1 (centres undefined)" unit_abbrev=nM readout_value=1130
compound="CCCC(CC1CCCCC1)NCCC1CCCCC1 (centres undefined)" unit_abbrev=nM readout_value=320
compound="CCCC(Cc1ccccc1)NCCC1=CCCCC1 (centres undefined)" unit_abbrev=nM readout_value=2410
compound="CCCC(Cc1ccccc1)NCCc1ccc(O)cc1 (centres undefined)" unit_abbrev=nM readout_value=49
compound="c1ccc(CCNC(CCc2ccccc2)Cc2ccccc2)cc1 (centres undefined)" unit_abbrev=nM readout_value=2300
compound="CCN(CCc1ccccc1)C(CCc1ccccc1)Cc1ccccc1 (centres undefined)" unit_abbrev=nM readout_value=1210

====

Listed next: entries and their corresponding EC50.
system: Aorta; assay: Vasorelaxant activity in Sprague-Dawley rat aortic rings assessed as reduction in phenylephrine-induced contractions by organ bath assay; format: functional, tissue-based
recorded.metric: EC50 (nM)

molecule="Fc1ccc(CCNC(CCc2ccccc2)Cc2ccc(Cl)cc2)cc1 (stereo not drawn)" recorded_metric=EC50 unit_abbrev=nM readout_value=650
molecule="CCCC(CC1CCCCC1)NCCc1ccccc1 (stereo not drawn)" recorded_metric=EC50 unit_abbrev=nM readout_value=1840
molecule="c1ccc(CCC(Cc2ccccc2)N(CCc2ccccc2)CCc2ccccc2)cc1 (stereo not drawn)" recorded_metric=EC50 unit_abbrev=nM readout_value=1390
molecule="COc1ccc(CCNC(C)Cc2ccc(OC)c(OC)c2)cc1OC (stereo not drawn)" recorded_metric=EC50 unit_abbrev=nM readout_value=2890
molecule="CCC(CCc1ccco1)NCCc1ccccc1 (stereo not drawn)" recorded_metric=EC50 unit_abbrev=nM readout_value=180
molecule="CCCC(Cc1ccccc1)NC1CCCC1 (stereo not drawn)" recorded_metric=EC50 unit_abbrev=nM readout_value=3090
molecule="C[N+](C)(CCc1ccccc1)C(CCc1ccccc1)Cc1ccccc1 (stereo not drawn)" recorded_metric=EC50 unit_abbrev=nM readout_value=1970
molecule="CCCC(CC1CCCCC1)NCCN1CCCCC1 (stereo not drawn)" recorded_metric=EC50 unit_abbrev=nM readout_value=220
molecule="CCC(CCCCc1ccccc1)NCCc1ccccc1 (stereo not drawn)" recorded_metric=EC50 unit_abbrev=nM readout_value=3360
molecule="CCCC(Cc1ccc(C)cc1)NCCc1ccccc1 (stereo not drawn)" recorded_metric=EC50 unit_abbrev=nM readout_value=2640
molecule="CCCC(CCCCc1ccccc1)NCCc1ccccc1 (stereo not drawn)" recorded_metric=EC50 unit_abbrev=nM readout_value=2020
molecule="CCC(Cc1ccccc1)NCCc1ccccc1 (stereo not drawn)" recorded_metric=EC50 unit_abbrev=nM readout_value=1120
molecule="c1ccc(CCNC2CCc3ccccc3C2)cc1 (stereo not drawn)" recorded_metric=EC50 unit_abbrev=nM readout_value=500
molecule="c1ccc(CCC(Cc2ccccc2)N(CCc2ccccc2)CC2CC2)cc1 (stereo not drawn)" recorded_metric=EC50 unit_abbrev=nM readout_value=140
molecule="CCCC(Cc1ccccc1)NC1CC1 (stereo not drawn)" recorded_metric=EC50 unit_abbrev=nM readout_value=2250
molecule=COc1ccc(CCNC(Cc2ccccc2)Cc2ccccc2)cc1OC recorded_metric=EC50 unit_abbrev=nM readout_value=1860
molecule="CCC(CCc1cccs1)NCCc1ccccc1 (stereo not drawn)" recorded_metric=EC50 unit_abbrev=nM readout_value=190
molecule="CCCC(Cc1csc2ccccc12)NCCc1ccccc1 (stereo not drawn)" recorded_metric=EC50 unit_abbrev=nM readout_value=370
molecule="CCCC(CC1CCCCC1)NCCC1=CCCCC1 (stereo not drawn)" recorded_metric=EC50 unit_abbrev=nM readout_value=1000
molecule="CCCC(Cc1ccc(Cl)cc1)NCCc1ccc(F)cc1 (stereo not drawn)" recorded_metric=EC50 unit_abbrev=nM readout_value=1090
molecule="CCCC(Cc1ccccc1)NC1Cc2ccccc2C1 (stereo not drawn)" recorded_metric=EC50 unit_abbrev=nM readout_value=350
molecule="CCC(CCc1ccc(C#N)cc1)NCCc1ccccc1 (stereo not drawn)" recorded_metric=EC50 unit_abbrev=nM readout_value=1960
molecule="CCCC(Cc1ccc2c(c1)OCO2)NCCc1ccccc1 (stereo not drawn)" recorded_metric=EC50 unit_abbrev=nM readout_value=1060
molecule="CCCC(Cc1ccccc1)NCCC#N (stereo not drawn)" recorded_metric=EC50 unit_abbrev=nM readout_value=1430
molecule="CCC(CCc1ccco1)NCCC1CCCCC1 (stereo not drawn)" recorded_metric=EC50 unit_abbrev=nM readout_value=2120
molecule="CCC(CCc1ccco1)NCCN1CCCCC1 (stereo not drawn)" recorded_metric=EC50 unit_abbrev=nM readout_value=420
molecule="CCCCCCCC(CCC)NCCc1ccccc1 (stereo not drawn)" recorded_metric=EC50 unit_abbrev=nM readout_value=1050
molecule="CCCNC(CCc1ccccc1)Cc1ccccc1 (stereo not drawn)" recorded_metric=EC50 unit_abbrev=nM readout_value=3830

Values compiled from ChEMBL document CHEMBL5385933.
